This section presents compounds with their documented melting point values.

CCC(CC)n1cnc2c1c(=O)n(C)c(=O)n2-c1ccc(Cl)cc1Cl = 158 to 159 °C
CCc1nc2c(c(=O)n(C)c(=O)n2-c2ccc(Cl)cc2Cl)n1C(CC)CC = 186 to 187 °C

Query :: Which melting point is reported for this compound? CCCC(CCC)n1c(CC)nc2c1c(=O)n(C)c(=O)n2-c1ccc(Cl)cc1Cl
Result :: 185 to 186 °C

Query :: Entry C=CCC(CC=C)n1c(CC)nc2c1c(=O)n(C)c(=O)n2-c1ccc(Cl)cc1Cl has what melting point?
Result :: 145 to 146 °C

Query :: Dear colleague, I am looking for the recorded melting point of the following compound: CCCC(CCC)n1c(CC)nc2c1c(=O)n(C)c(=O)n2-c1c(C)cc(C)cc1C
Result :: 195 to 195.5 °C

Query :: Fill in the blank: the reported melting point of CCc1nc2c(c(=O)n(C)c(=O)n2-c2ccc(Cl)cc2Cl)n1Cc1ccc(OC)cc1 is ____.
Result :: 209 to 210 °C

Query :: What value of melting point has been recorded for this entry: CCCC(CCC)n1c(CC)nc2c1c(=O)n(C)c(=O)n2-c1c(OC)ccnc1C
Result :: 124 to 126 °C
